Tested on: Beet Armyworm (Spodoptera exigua)
assay.info: Insecticidal diet-surface test for beet armyworm
Type: in vivo
setup.conditions: second-instar beet armyworm, 50 ug/cm2 on diet surface, 5 days after treatment, dead insects of 8
readout: LAPHEG 50 (ug/cm2), percent control (%)
Entry rule: numbers only, all in %.

Previously resolved entries follow.
FC(F)(F)COc1ccc(/C=N/Nc2nc(Cl)cc(Nc3cccc(Cl)c3)n2)cn1 ... 100
Fc1ccc(Nc2cc(N/N=C/c3ccc(OC(F)(F)F)cc3)nc(NCc3ccc(Cl)nc3)n2)cc1C(F)(F)F ... 100
Fc1ccc(Nc2cc(Cl)nc(N/N=C/c3ccc(OCC(F)(F)F)nc3)n2)cc1C(F)(F)F ... 100
Fc1ccc(Nc2cc(OCC(F)(F)F)nc(N/N=C/c3ccc(OC(F)(F)F)cc3)n2)cc1C(F)(F)F ... 100
Fc1ccc(/C=N/Nc2nc(Cl)cc(Nc3cccc(OC(F)(F)C(F)F)c3)n2)cc1C(F)(F)F ... 25

## Input Find the recorded LAPHEG 50 (ug/cm2), percent control belonging to Fc1ccc(Nc2cc(Cl)nc(N/N=C/c3cccc(OC(F)(F)C(F)F)c3)n2)cc1C(F)(F)F and report it.
## Output 100

## Input Now this one: Fc1ccc(Nc2nccc(N/N=C/c3ccc(OC(F)(F)C(F)F)cc3)n2)cc1C(F)(F)F
## Output 100

## Input Now this one: Clc1cccc(/C=N/Nc2nc(Cl)cc(Nc3cccc(Cl)c3)n2)c1
## Output 25

## Input Now this one: Fc1cc(Nc2ccc(OC(F)(F)C(F)F)cc2)nc(NN=Cc2ccc(OC(F)(F)F)cc2)n1
## Output 50

## Input Now this one: Fc1cc(Nc2ccc(F)c(C(F)(F)F)c2)nc(NN=Cc2ccc(OC(F)(F)C(F)F)cc2)n1
## Output 100

## Input Now this one: COCCNc1cc(Nc2ccc(F)c(C(F)(F)F)c2)nc(N/N=C/c2ccc(OC(F)(F)F)cc2)n1
## Output 100

## Input Now this one: FC(F)(F)Oc1ccc(/C=N/Nc2cc(Nc3cc(Cl)cc(C(F)(F)F)c3)nc(Cl)n2)cc1
## Output 100

## Input Now this one: FC(F)(F)Oc1ccc(/C=N/Nc2nc(Cl)cc(Nc3cccc(Cl)c3)n2)cc1
## Output 100

## Input Now this one: Clc1cc(Nc2cccc(Br)c2)nc(N/N=C/c2ccccc2Cl)n1
## Output 25

## Input Now this one: Fc1ccc(Nc2cc(N3CCOCC3)nc(N/N=C/c3ccc(OC(F)(F)F)cc3)n2)cc1C(F)(F)F
## Output 100

## Input Now this one: FC(F)C(F)(F)Oc1ccc(Nc2cc(Cl)nc(N/N=C/c3cccc(OC(F)(F)C(F)F)c3)n2)cc1
## Output 88
